# Test target: mTor (Homo sapiens, UniProt P42345)
# Construct: purchased Millipore/Merck KGA
# Experiment: In vitro kinase inhibition, mTor (Millipore/Merck kinases panel screening)
# Type: biochemical
# Experimental conditions: compound at 0.03 μM; scaffold drawing 7 series

[
  {
    "Smiles notation": "CN(C)CC(=O)Nc1ccc(-c2ccc3ncc4c(c3c2)n(-c2ccc(Cl)c(C(F)(F)F)c2)c2nncn42)cn1",
    "activity at 0.03 µM (%)": 15
  },
  {
    "Smiles notation": "FC(F)(F)c1cccc(-n2c3c4cc(-c5ccc(NCCN6CCCC6)nc5)ccc4ncc3n3cnnc23)c1",
    "activity at 0.03 µM (%)": 4
  },
  {
    "Smiles notation": "FC(F)(F)c1cc(-n2c3c4cc(-c5cccnc5)ccc4ncc3n3cnnc23)ccc1Cl",
    "activity at 0.03 µM (%)": 19
  },
  {
    "Smiles notation": "O=C(CN1CCOCC1)Nc1ccc(-c2ccc3ncc4c(c3c2)n(-c2ccc(Cl)c(C(F)(F)F)c2)c2nncn42)cn1",
    "activity at 0.03 µM (%)": 17
  },
  {
    "Smiles notation": "O=C1CCN(CC(=O)Nc2ccc(-c3ccc4ncc5c(c4c3)n(-c3ccc(Cl)c(C(F)(F)F)c3)c3nncn53)cn2)CC1",
    "activity at 0.03 µM (%)": 57
  },
  {
    "Smiles notation": "OCCNc1ccc(-c2ccc3ncc4c(c3c2)n(-c2ccc(Cl)c(C(F)(F)F)c2)c2nncn42)cn1",
    "activity at 0.03 µM (%)": -4
  },
  {
    "Smiles notation": "FC(F)(F)c1cccc(-n2c3c4cc(-c5cnc6ccccc6c5)ccc4ncc3n3cnnc23)c1",
    "activity at 0.03 µM (%)": -5
  },
  {
    "Smiles notation": "O=C(CN1CCCC1)Nc1ccc(-c2ccc3ncc4c(c3c2)n(-c2ccc(Cl)c(C(F)(F)F)c2)c2nncn42)cn1",
    "activity at 0.03 µM (%)": 4
  },
  {
    "Smiles notation": "O=C(CN1CCC(O)CC1)Nc1ccc(-c2ccc3ncc4c(c3c2)n(-c2ccc(Cl)c(C(F)(F)F)c2)c2nncn42)cn1",
    "activity at 0.03 µM (%)": 14
  },
  {
    "Smiles notation": "COCCNc1ccc(-c2ccc3ncc4c(c3c2)n(-c2cccc(C(F)(F)F)c2)c2nncn42)cn1",
    "activity at 0.03 µM (%)": -3
  },
  {
    "Smiles notation": "CN(C)CC(=O)Nc1ccc(-c2ccc3ncc4c(c3c2)n(-c2cccc(C(F)(F)F)c2)c2nncn42)cn1",
    "activity at 0.03 µM (%)": 7
  }
]
